System: UACC-62 melanoma
Assay: NCI tumour cell line growth inhibition, 48 h
recorded.metric: TGI

Solved entries (count: 10):
compound	tested.system	recorded.metric	measured.result
CCCCC(=O)Nc1ccc2cc(C(=O)OC)c(Cl)nc2n1	UACC-62 melanoma	TGI	> 100 µM
Cc1ccccc1N1C(N)=C(C#N)C(C#N)(C#N)C1c1ccccc1 (stereo not drawn)	UACC-62 melanoma	TGI	37.7 µM
CCCCCCCCCCCCCCCCCCNc1nc(=O)n(C2CC(O)C(COP(=O)(O)OCC(COP(=O)(O)OC3C(CO)OC(n4ccc(N)nc4=O)C3O)OCCCCCCCCCCCCCCCCCC)O2)cc1F (stereo not drawn)	UACC-62 melanoma	TGI	> 100 µM
COC(=O)[C@]12CC[C@@H](C(=O)/C=C/c3cccnc3)[C@@H]1[C@H]1CC[C@@H]3[C@@]4(C)C/C(=C/c5cccnc5)C(=O)C(C)(C)[C@@H]4CC[C@@]3(C)[C@]1(C)CC2	UACC-62 melanoma	TGI	1.05 µM
CN(C)c1ccc(N=Nc2ccc(Br)cn2)c(O)c1	UACC-62 melanoma	TGI	8.35 µM
Cc1cc2nn(C3CCCO3)nc2cc1C (stereo not drawn)	UACC-62 melanoma	TGI	> 100 µM
COc1ccc2nc3n(c2c1)C(c1c(F)cccc1Cl)SC3 (stereo not drawn)	UACC-62 melanoma	TGI	> 100 µM
O=C1CC2C=CC1C2CO (stereo not drawn)	UACC-62 melanoma	TGI	> 100 µM
COc1ccc(OC)c(CCc2cc(OC)ccc2OC)c1	UACC-62 melanoma	TGI	> 10 µM
Nc1cc2ccccc2c(O)c1O	UACC-62 melanoma	TGI	18.7 µM

Incoming: What value of TGI has been recorded for this entry: `CC(C)(C)c1cc(COc2c3sc(=S)sc3c(OCc3cc(C(C)(C)C)cc(C(C)(C)C)c3)c3sc(=S)sc23)cc(C(C)(C)C)c1`
Outgoing: > 100 µM

Incoming: Now the compound `C/C1=C\CC[C@@]2(C)O[C@@H]2C[C@@H]2[C@H](C/C(C)=C/CC1)OC(=O)C21CC1`
Outgoing: > 100 µM

Incoming: Now the compound `NC(N)=NS(=O)(=O)c1ccc(NC(=O)c2cccc3cc4ccccc4nc23)cc1`
Outgoing: > 100 µM

Incoming: Now the compound `C=C[C@]1(C)C[C@@H](OC(=O)CO)[C@@]2(C)[C@H](C)CC[C@]3(CCC(=O)[C@H]32)[C@@H](C)[C@@H]1O`
Outgoing: > 50.3 µM

Incoming: Now the compound `N#Cc1c(N)c2c(c(-c3ccccc3)c1-c1ccccc1)C(=O)N(NC(=S)Nc1ccccc1)C2=O`
Outgoing: > 100 µM

Incoming: Now the compound `CN1CCN(Cc2ccc(NC(=O)c3cncc(C#Cc4cnc5ccc(Cl)nn45)c3)cc2C(F)(F)F)CC1`
Outgoing: 2.4 µM

Incoming: Now the compound `CC1(C)CC(/C=C2/OC(=O)c3ccccc32)=C(C(N)=O)C(=O)O1`
Outgoing: > 100 µM

Incoming: Now the compound `O=C(c1cccs1)c1c(C(F)(F)F)n([O-])c2ccc(Cl)cc2[n+]1=O`
Outgoing: 0.562 µM

###

Tested on: SN12C renal
Assay: NCI tumour cell line growth inhibition, 48 h
recorded.metric: TGI

>>> print(df.to_string())
                                compound  measured_result
0  OC(Cc1ccc2ccccc2n1)(C(F)(F)F)C(F)(F)F          > 10 µM

Incoming: What value of TGI has been recorded for this entry: COC(=O)C(C)(C)NC(=O)C(Cc1ccccc1)Nc1ncnc2c1ncn2-c1ccc(OC)cc1 (stereo not given)
Outgoing: > 100 µM

Incoming: Now the compound `Cc1ccc(-n2c(=S)[nH]c3ccc(Br)cc3c2=O)cc1`
Outgoing: > 100 µM

Incoming: Now the compound `CC(=O)OC(OC(C)=O)c1ncccc1C(=O)OC(C)C`
Outgoing: > 100 µM

Incoming: Now the compound `O=c1[nH]c2ccccc2c(O)c1/C=N/C(=S)NCCc1ccccc1`
Outgoing: > 100 µM

###

System: SF-539 CNS
Test: NCI tumour cell line growth inhibition, 48 h
Lab note: compare TGI against 7 µM. Equal or greater, write label 1. Smaller, write label 0.

Examples from the recorded data:
>>> df
                                   compound  discrete_label
0  CCN(CC)CCN1CCc2c([nH]c3ccccc23)C1c1cccnc1 (stereo unspecified)         label 1
1  CC(=O)c1cccc(NC(=O)C(=O)C(C(=O)NN)c2ccccc2)c1 (stereo unspecified)         label 1
2           S=c1nc(COc2ccc(Cl)cc2)[nH][nH]1         label 1
3    CCCCCCCCCCCCCCCC[N+](C)(C)Cc1ccc(F)cc1         label 0
4                O=C1CCC[C@]2(CCCC(=O)N2)C1         label 1
5  C1CCC(C(CC2CCCCN2)C2CCCCC2)CC1 (stereo unspecified)         label 0
6  COc1ccc2[nH]c(Cl)c(/C=C3/C(=O)N(c4ccccc4)c4ccccc43)c2c1         label 0
7  CC(CO)(CO)N1C(=O)C2C3c4ccccc4C(c4ccccc43)C2C1=O (stereo unspecified)         label 1
8  COc1nc2ncc([C@@H](O)[C@H](O)CO)nc2c(=O)n1C         label 1
9  Nc1nc2c(ncn2C2C=CC(COS(N)(=O)=O)C2)c(=O)[nH]1 (stereo unspecified)         label 1

Incoming: Determine whether measured TGI meets or exceeds 7 µM for `N=C(N)c1ccc(-c2ccc(-c3ccc(F)cc3)s2)nc1`
Outgoing: label 0

Incoming: Now the compound `O=C(O)c1ccccc1NS(=O)(=O)c1ccc([N+](=O)[O-])cc1`
Outgoing: label 1

Incoming: Now the compound `Clc1ccc(-c2nc(-c3ccccc3)cn3ccnc23)cc1`
Outgoing: label 1

Incoming: Now the compound `CNCCC/C=C1\c2cc3c(cc2-c2c1c1cc(OC)c(OC)cc1c(=O)n2C)OCO3`
Outgoing: label 0

Incoming: Now the compound `O=C(O)C1(Cc2ccccc2)Cc2ccccc2C1`
Outgoing: label 1

Incoming: Now the compound `O=c1oc2ccccc2c(O)c1/C=N\c1nc(-c2ccc(O)c(O)c2)cs1`
Outgoing: label 1

###

Tested on: T-47D breast
Test: NCI tumour cell line growth inhibition, 48 h
recorded.metric: TGI

Solved entries (count: 3):
compound	TGI
Cc1cc(-c2ccc(C3C(C#N)=C(N)Oc4c3c(=O)oc3ccccc43)cc2)cnc1F (stereo unspecified)	> 100 µM
O=C(C1CC1)N1CC[C@@H](Cc2n[nH]c(=O)n2-c2ccc(-c3ccc4occc4c3)cc2)C1	> 96.5 µM
Nc1c(C(=O)c2cccc(-c3ccncc3)c2)cnn1-c1ccc(F)cc1	> 25 µM

Incoming: Write down the reported TGI of C=CCCC1CCCCNC1=S (stereo unspecified) , test system: T-47D breast.
Outgoing: > 10 µM

Incoming: Now the compound Cc1cn(C2OC(CO)C(O)C2O)c(=O)[nH]c1=O (stereo unspecified)
Outgoing: > 1000 µM

Incoming: Now the compound CC(=O)OCC12C(OC(C)=O)C(=O)C3C(OC(C)=O)C14OC3(C)COC(=O)c1cccnc1C(C)C(C)C(=O)OC(C(OC(C)=O)C2OC(C)=O)C4(C)O (stereo unspecified)
Outgoing: > 100 µM

###

Test system: RXF 393 renal
Experiment: NCI tumour cell line growth inhibition, 48 h
recorded.metric: TGI

Incoming: What value of TGI has been recorded for this entry: `O=C(C1CC1)N1CC[C@@H](Cc2n[nH]c(=O)n2-c2ccc(-c3ccc4occc4c3)cc2)C1`
Outgoing: > 100 µM

Incoming: Now the molecule COc1ccc2nc3n(c2c1)C(c1c(F)cccc1Cl)SC3 (centres undefined)
Outgoing: > 100 µM

Incoming: Now the molecule `Nc1nnnn1NC(=O)NCCCl`
Outgoing: > 10 µM

Incoming: Now the molecule `CCOC(=O)/C=C(\C)c1ccc(Cl)cc1`
Outgoing: > 100 µM

Incoming: Now the molecule C=CCN=C1N=C(C)C(C(=O)OCC)S1 (centres undefined)
Outgoing: > 100 µM

Incoming: Now the molecule `CS(=O)(=O)c1ccc(NNc2cc(=O)[nH]c(=O)[nH]2)cc1`
Outgoing: > 100 µM

Incoming: Now the molecule `CCO/C(O)=C(/C(=N)N1CCOCC1)C(=O)Nc1cccc(Cl)c1`
Outgoing: > 100 µM

###

Tested on: HL-60(TB) leukemia
Test: NCI tumour cell line growth inhibition, 48 h
recorded.metric: TGI

Solved entries (count: 2):
                                smiles_text       tested_system  measured_result
0  O=C(C1CC1)N1CC[C@@H](Cc2n[nH]c(=O)n2-c2ccc(-c3ccc4occc4c3)cc2)C1  HL-60(TB) leukemia        > 44.4 µM
1     Clc1ccc(-c2nc(-c3ccccc3)cn3ccnc23)cc1  HL-60(TB) leukemia         > 100 µM

Okay, next one:
Incoming: Write down the reported TGI of `c1ccc(-c2cn3nc(N4CCOCC4)sc3n2)cc1` , test system: HL-60(TB) leukemia.
Outgoing: > 100 µM
